Test system: Staphylococcus epidermidis
Measurement notes: Antibacterial activity against biofilm negative Staphylococcus epidermidis ATCC 12228 by double-dilution technique
Assay type: functional
Listed next: entries and their corresponding MIC.
Endpoint: MIC

CCC[C@@H]1C[C@@H](C(=O)N[C@@H]([C@H]2O[C@H](SC)[C@H](O)[C@@H](O)[C@H]2O)[C@H](C)Cl)N(C)C1 [CLINDAMYCIN]; 1 µg/mL
CCC[C@@H]1C[C@@H](C(=O)NC([C@H]2O[C@H](SC)[C@H](O)[C@@H](O)[C@H]2O)[C@@H](C)SCCOCCSSCCOCCSC[C@H]2O[C@@H](O[C@@H]3[C@@H](O)[C@H](O[C@H]4O[C@H](CN)[C@@H](O)C[C@H]4N)[C@@H](N)C[C@H]3N)C(O)[C@@H](N)[C@@H]2O)N(C)C1 (single isomer, unassigned); 2 µg/mL
O=C(CSCCOCCSCC(=O)N[C@H](CO)[C@H](O)c1ccc([N+](=O)[O-])cc1)N[C@H](CO)[C@H](O)c1ccc([N+](=O)[O-])cc1; > 64 µg/mL
NC[C@H]1O[C@H](O[C@H]2[C@H](O)[C@@H](O[C@@H]3O[C@H](CSCCOCCSCC(=O)N[C@H](CO)[C@H](O)c4ccc([N+](=O)[O-])cc4)[C@@H](O)[C@H](N)[C@H]3O)[C@H](N)C[C@@H]2N)[C@H](N)C[C@@H]1O; 8 µg/mL
O=C(CSCCOCCS)N[C@H](CO)[C@H](O)c1ccc([N+](=O)[O-])cc1; > 128 µg/mL
CCC[C@@H]1C[C@@H](C(=O)N[C@H]([C@H]2O[C@H](SC)[C@H](O)[C@@H](O)[C@H]2O)[C@@H](C)SCCOCCSSCCOCCS[C@H](C)[C@H](NC(=O)[C@@H]2C[C@@H](CCC)CN2C)[C@H]2O[C@H](SC)[C@H](O)[C@@H](O)[C@H]2O)N(C)C1; 1 µg/mL
NC[C@H]1O[C@H](O[C@H]2[C@H](O)[C@@H](O[C@@H]3O[C@H](CSCCOCCSSCCOCCSC[C@H]4O[C@@H](O[C@@H]5[C@@H](O)[C@H](O[C@H]6O[C@H](CN)[C@@H](O)C[C@H]6N)[C@@H](N)C[C@H]5N)[C@H](O)[C@@H](N)[C@@H]4O)[C@@H](O)[C@H](N)[C@H]3O)[C@H](N)C[C@@H]2N)[C@H](N)C[C@@H]1O; 16 µg/mL
O=C(N[C@H](CO)[C@H](O)c1ccc([N+](=O)[O-])cc1)C(Cl)Cl [CHLORAMPHENICOL]; 8 µg/mL

Just for reference, ChEMBL document CHEMBL2417431 is where these values come from.
